tgt: human recombinant Yes [a.a. 2–543 (end)] (Homo sapiens, UniProt P07947)
Construct: human recombinant Yes [a.a; 2–543 (end)]; purchased BPS Bioscience 40488
Sequence (P07947 2-543): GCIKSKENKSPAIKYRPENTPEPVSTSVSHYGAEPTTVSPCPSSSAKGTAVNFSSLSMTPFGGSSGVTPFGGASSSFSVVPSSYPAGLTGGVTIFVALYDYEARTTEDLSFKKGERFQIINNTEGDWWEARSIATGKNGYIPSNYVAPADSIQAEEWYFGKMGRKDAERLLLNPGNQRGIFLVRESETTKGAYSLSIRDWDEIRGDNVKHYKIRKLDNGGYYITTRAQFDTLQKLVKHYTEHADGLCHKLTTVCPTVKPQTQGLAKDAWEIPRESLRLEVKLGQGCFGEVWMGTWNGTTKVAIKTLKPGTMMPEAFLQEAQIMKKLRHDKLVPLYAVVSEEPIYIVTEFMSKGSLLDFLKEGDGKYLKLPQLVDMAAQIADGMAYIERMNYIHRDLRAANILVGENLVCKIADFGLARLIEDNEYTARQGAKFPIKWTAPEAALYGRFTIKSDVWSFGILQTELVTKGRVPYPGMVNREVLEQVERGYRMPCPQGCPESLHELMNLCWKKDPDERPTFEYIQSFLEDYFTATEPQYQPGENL
assay_info: ADP-Glo kinase assay, inhibition rates of Yes phosphorylation activity (first and second screening)
Format: biochemical
condition_summary: first screening; mean of n = 4 wells; 10 μmol L−1 compound
# First screening IR (inhibition rate) >= 10% gives condition met, anything below gives condition not met

// inclusive: First screening IR (inhibition rate) at least 10%? input: O=C(O)c1ccc2nc3c(nc2c1)-c1cccc2cccc-3c12 condition met

// inclusive: First screening IR (inhibition rate) at least 10%? input: CN(C)c1ccc(/C=c2/s/c(=C(/C#N)C(=O)NCCN3CCOCC3)n(Cc3ccco3)c2=O)cc1 condition met

// inclusive: First screening IR (inhibition rate) at least 10%? input: CC(NCc1ccnc(OC2CCOC2)c1)c1cccc(F)c1 (centres unmarked) condition met

// inclusive: First screening IR (inhibition rate) at least 10%? input: CS(=O)(=O)C1(S(C)(=O)=O)CCCCC1 condition met

// inclusive: First screening IR (inhibition rate) at least 10%? input: CCn1c(CN2CCN(C(=O)c3ccccc3)CC2)nc2cc(S(=O)(=O)N3CCOCC3)ccc21 condition not met

// inclusive: First screening IR (inhibition rate) at least 10%? input: Nc1ncnc(Nc2ccccc2F)n1 condition met

// inclusive: First screening IR (inhibition rate) at least 10%? input: CN(C)c1ccc(-c2cncc(C(=O)NCC3CC=CCC3)c2)cc1 (centres unmarked) condition met

// inclusive: First screening IR (inhibition rate) at least 10%? input: Cc1ccc(-c2nc(NC(=O)c3ccc(F)cc3F)n[nH]2)cc1 condition not met

// inclusive: First screening IR (inhibition rate) at least 10%? input: Cc1ccc(C)c(CS(=O)(=O)CCCS(=O)(=O)N(C)C)c1 condition met

// inclusive: First screening IR (inhibition rate) at least 10%? input: CCNC(=O)c1cc(-c2ccccc2)nc2c1cnn2Cc1ccccc1 condition not met

// inclusive: First screening IR (inhibition rate) at least 10%? input: O=C1Nc2ccccc2/C1=C\c1ccc(O)cc1 condition met

// inclusive: First screening IR (inhibition rate) at least 10%? input: O=C(Nc1ccc(C2(c3ccc(NC(=O)c4ccc(N5CCCCCC5)c([N+](=O)[O-])c4)cc3)CCCCC2)cc1)c1ccc(N2CCCCCC2)c([N+](=O)[O-])c1 condition not met

// inclusive: First screening IR (inhibition rate) at least 10%? input: CC1CCN(c2nc(N)nc3nc[nH]c23)CCN1Cc1ccccc1 (centres unmarked) condition met

// inclusive: First screening IR (inhibition rate) at least 10%? input: Cc1ccccc1Nc1nc(N)nc(CSc2ccc(C(F)(F)F)cn2)n1 condition met

// inclusive: First screening IR (inhibition rate) at least 10%? input: Cc1cc(=O)[nH]c(C(C)Sc2ncn(-c3ccccc3)n2)n1 (centres unmarked) condition met

// inclusive: First screening IR (inhibition rate) at least 10%? input: Cc1ccc(Cn2c(=O)c3ccccc3n3c(CCC(=O)NCCN(Cc4ccco4)C(C)C)nnc23)cc1 condition not met

// inclusive: First screening IR (inhibition rate) at least 10%? input: CCCNC(=O)CN(CCC)C(=O)c1cc(-c2ccccc2)nc2c1cnn2CC condition not met

====

tgt: human recombinant Yes [a.a. 2–543 (end)] (Homo sapiens)
Construct: human recombinant Yes [a.a; 2–543 (end)]; purchased BPS Bioscience 40488
assay_info: ADP-Glo kinase assay, inhibition rates of Yes phosphorylation activity (first and second screening)
Type: biochemical
condition_summary: first screening; mean of n = 4 wells; 10 μmol L−1 compound
measured_property: First screening IR (inhibition rate)
Report as: number unit

For the molecule COc1ccc(CCn2c(N)c(C(=O)NCc3ccc4c(c3)OCO4)c3nc4ccccc4nc32)cc1OC , the measured First screening IR (inhibition rate) on human recombinant Yes [a.a. 2–543 (end)] (Homo sapiens) was 34%

For the molecule Cc1ccc(S(=O)(=O)N(C)S(=O)(=O)c2ccc(C#N)cc2)cc1 , the measured First screening IR (inhibition rate) on human recombinant Yes [a.a. 2–543 (end)] (Homo sapiens) was 3%

For the molecule COc1ccc(CNCc2cn[nH]c2-c2ccc(C)o2)cn1 , the measured First screening IR (inhibition rate) on human recombinant Yes [a.a. 2–543 (end)] (Homo sapiens) was -2%

For the molecule CC(Sc1n[nH]c(-c2cccs2)n1)C(=O)c1c[nH]c2ccccc12 (centres unmarked) , the measured First screening IR (inhibition rate) on human recombinant Yes [a.a. 2–543 (end)] (Homo sapiens) was 17%

For the molecule Cc1nn(-c2ccc(Br)cc2)c(C)c1C(=O)Nc1ncn[nH]1 , the measured First screening IR (inhibition rate) on human recombinant Yes [a.a. 2–543 (end)] (Homo sapiens) was -2%

For the molecule Cc1ccc(S(=O)(=O)N(C)C2(C)CCS(=O)(=O)C2)cc1 (centres unmarked) , the measured First screening IR (inhibition rate) on human recombinant Yes [a.a. 2–543 (end)] (Homo sapiens) was 3%

For the molecule C/C(N)=C(\C#N)C(=O)CSc1nnc(-c2ccccc2F)n1Cc1ccccc1 , the measured First screening IR (inhibition rate) on human recombinant Yes [a.a. 2–543 (end)] (Homo sapiens) was -17%

For the molecule CCOC(=O)c1c(C)oc2ncn(Cc3cccc(F)c3F)c(=O)c12 , the measured First screening IR (inhibition rate) on human recombinant Yes [a.a. 2–543 (end)] (Homo sapiens) was 2%

====

tgt: human recombinant Yes [a.a. 2–543 (end)] (Homo sapiens)
Construct: human recombinant Yes [a.a; 2–543 (end)]; purchased BPS Bioscience 40488
assay_info: ADP-Glo kinase assay, inhibition rates of Yes phosphorylation activity (first and second screening)
Type: biochemical
condition_summary: first screening; mean of n = 4 wells; 10 μmol L−1 compound
Exercise: state measured First screening IR (inhibition rate) for each of the compounds provided.
Answer format: numeric, % implied, no suffix.

Record Cc1cn2c3c(=O)n(CC(C)C)c(=O)n(C)c3nc2n1-c1ccc(N(C)C)cc1 [Compound Z281877508] , field First screening IR (inhibition rate): 6

Record O=C(Nc1cc(-c2cccc([N+](=O)[O-])c2)sc1C(=O)O)c1cc2c(s1)CCC2 [Compound Z204341220] , field First screening IR (inhibition rate): -3

Record O=C(O)c1cc(-c2cccnc2)nc2c1cnn2Cc1cccnc1 [Compound Z98638708] , field First screening IR (inhibition rate): 13

Record CCN(C(=O)CN1CCN(Cc2ccc3c(c2)OCO3)CC1)c1c(N)n(Cc2ccccc2)c(=O)[nH]c1=O [Compound Z46204583] , field First screening IR (inhibition rate): 4

Record Clc1ccc(C2=NN/C(=N/c3ccccn3)SC2)s1 [Compound Z1446648080] , field First screening IR (inhibition rate): 8

Record Cc1oc2cc(OCC(=O)N(C)C3CCS(=O)(=O)C3)ccc2c(=O)c1-c1c(F)cccc1Cl (stereo not shown) [Compound Z25645184] , field First screening IR (inhibition rate): -1

Record COc1ccc(-n2c(-c3ccccc3)cn3c4c(=O)n(CCN5CCCCC5)c(=O)n(C)c4nc23)cc1 [Compound Z241121498] , field First screening IR (inhibition rate): -22

Record Cc1cc(F)ccc1NC(=O)C(C)Oc1cccc(Cl)c1 (stereo not shown) [Compound Z29827650] , field First screening IR (inhibition rate): 11

Record CN(C)S(=O)(=O)CCCS(=O)(=O)Cc1cccc(F)c1 [Compound Z1127660834] , field First screening IR (inhibition rate): 6

Record CC(C)C(NC(=O)c1ccc(S(=O)(=O)N(C)C)cc1)c1ccc2c(c1)OCCCO2 (stereo not shown) [Compound Z91218489] , field First screening IR (inhibition rate): 5

Record Cc1cc(COC(=O)c2cc(-c3cccs3)nc3c2cnn3C(C)C)no1 [Compound Z215601214] , field First screening IR (inhibition rate): -2

Record C/C(=C\C(=O)N1CCN(c2cnccn2)CC1)C12CC3CC(CC(C3)C1)C2 [Compound Z850748812] , field First screening IR (inhibition rate): 12

Record Cc1oc(-n2cccc2)c(C#N)c1C(=O)Nc1cccc(/C=C/c2ccccn2)c1 [Compound Z89489183] , field First screening IR (inhibition rate): 9

Record CCN(CCC#N)S(=O)(=O)c1cc(C)cc(S(C)(=O)=O)c1C [Compound Z1145197816] , field First screening IR (inhibition rate): -2

Record Cc1ccc(-n2ncc(C(=O)Nc3ccccc3F)c2C2CC2)cc1Cl [Compound Z363094390] , field First screening IR (inhibition rate): -5

Record COc1cc(C(=O)Nc2ccc3c(c2)NC(=O)C(C)O3)cc2c1OC(C)C2 (stereo not shown) [Compound Z167364352] , field First screening IR (inhibition rate): 6
